Test system: biotinyl-Val-oxazolone
Test: self-aminoacylation, catalytic enhancement (BVO) (fold over background); higher = more active; k-Seq, kA / k0A0; sequences stand for … in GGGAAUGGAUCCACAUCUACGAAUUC…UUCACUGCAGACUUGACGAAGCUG
Fewer inactive variants are shown than the library holds.
I'd appreciate it if you could supply self-aminoacylation values for the items below.
Give bare numbers.

Solved cases below.
[[record]]
monomer_sequence = "AACUUUGCUAAUAGUCCCAAG [Fam3.1 aminoacylation ribozyme variant]"
reported_property = "self-aminoacylation"
recorded_measurement = 1.64

[[record]]
monomer_sequence = "AUUACGCUAGUCAUCGAGUGA [Fam2.1 aminoacylation ribozyme variant]"
reported_property = "self-aminoacylation"
recorded_measurement = 2.47

[[record]]
monomer_sequence = "AUUCACCAAGGUCAUCGGGAG [Fam2.2 aminoacylation ribozyme variant]"
reported_property = "self-aminoacylation"
recorded_measurement = 1.11

[[record]]
monomer_sequence = "CUACUUCAAACAUUGGGUCUG [Fam1A.1 aminoacylation ribozyme variant]"
reported_property = "self-aminoacylation"
recorded_measurement = 0.977

[[record]]
monomer_sequence = "CUACUUCAUACAAUCGGUUUG [Fam1A.1 aminoacylation ribozyme variant]"
reported_property = "self-aminoacylation"
recorded_measurement = 0.541


Okay, here is my list. What is self-aminoacylation for each of these?
1. AUUCACCGGGGUCAUCGGGUG [Fam2.2 aminoacylation ribozyme variant]
2. CCACACUUAAAGCCAUCGGUC [Fam1B.1 aminoacylation ribozyme variant]
3. ACUCACCUUGGUCAUCGGGUG [Fam2.2 aminoacylation ribozyme variant]
4. AUUCACCUUGGUCAUAGGGUG [Fam2.2 aminoacylation ribozyme variant]

### Response
[7.4, 1.11, 5.78, 1.16]

Quick one: give me self-aminoacylation for each item below, same order please.
1. CUACUUCAAACAAUCGGACUC [Fam1A.1 aminoacylation ribozyme variant]
2. ACUGACCUAGGUCAUCGGGUG [Fam2.2 aminoacylation ribozyme variant]
3. AUUACCCUGCUCAUCGACUGA [Fam2.1 aminoacylation ribozyme variant]
4. CAACUUCAAUCAAUCGGUCUG [Fam1A.1 aminoacylation ribozyme variant]
5. AUUAACCUGGUCAUCGAGUUA [Fam2.1 aminoacylation ribozyme variant]
6. AAGUUUGCUAAUAAUGGCAAG [Fam3.1 aminoacylation ribozyme variant]
7. AUUCACCUAGCUCAUCGGGCG [Fam2.2 aminoacylation ribozyme variant]
8. CCACAUUUCAAGCAUUCGGUC [Fam1B.1 aminoacylation ribozyme variant]

### Response
[0.7, 5, 0.82, 1.4, 1.02, 0.727, 2.57, 1.96]

Quick request: self-aminoacylation for each listed item, please.
1. ACUUACCUAGGUCAUCGGGUG [Fam2.2 aminoacylation ribozyme variant]
2. UCACACUUCAAGCAGUCGGUC [Fam1B.1 aminoacylation ribozyme variant]
3. AUUACUCUGGUCUUCGAGUGA [Fam2.1 aminoacylation ribozyme variant]
4. GUUGCCCUGGUCAUCGAGUGA [Fam2.1 aminoacylation ribozyme variant]

### Response
[5.61, 0.972, 2.85, 23.4]

State the recorded self-aminoacylation for every item in the following list.
1. AUUACCCUGGGCAUCGGGUGA [Fam2.1 aminoacylation ribozyme variant]
2. AGUCACCUAUGUCAUCGGGUG [Fam2.2 aminoacylation ribozyme variant]
3. AUUACCCUGGUCCUCGAGCGA [Fam2.1 aminoacylation ribozyme variant]
4. CUACUUCAACCUAUCGGUCUG [Fam1A.1 aminoacylation ribozyme variant]
5. AUUACCCUGGGUAUCGAGUGA [Fam2.1 aminoacylation ribozyme variant]
6. AUUCACCUAGGUAAUCAGGUG [Fam2.2 aminoacylation ribozyme variant]
7. CUACUUCAUACAAUGGGUCUG [Fam1A.1 aminoacylation ribozyme variant]
8. CCACACUUAAAGCAAUCCGUC [Fam1B.1 aminoacylation ribozyme variant]

### Response
6.68
3.19
1.77
0.884
4.62
0.989
0.757
1.17
